These entries and their values trace back to ChEMBL document CHEMBL1151139.

System: HT-29
assay text: Cytotoxicity against human HT-29 cells
Assay type: functional
condition set: read-out: ED50 (the source's name)
reported property: EC50 (µg/mL)
Value expressed in µg/mL; do not type the unit.

Item under review: CCCCCCCCCCCC[C@H](O)[C@@H]1CC[C@@H]([C@@H](O)CCCCCC(O)CCCCC2CC(CC(C)O)C(=O)O2)O1 (some centres undefined) [TETRAHYDROSQUAMONE] . Reported EC50? 0.298

Item under review: COc1cccc2c1C(=O)c1c(O)c3c(c(O)c1C2=O)C[C@@](O)(C(=O)CO)C[C@@H]3O[C@H]1C[C@H](N)[C@H](O)[C@H](C)O1 [DOXORUBICIN] . Reported EC50? 0.0301

Item under review: CCCCCCCCCCCC[C@H](O)[C@@H]1CC[C@@H]([C@@H](O)CCCCCC(=O)CCCCC2CC(CC(C)=O)C(=O)O2)O1 (some centres undefined) [SQUAMONE] . Reported EC50? 1.5
